Experiment: qHTS Screen of the MIPE 4.0 Collection Against Ewings Sarcoma (TC71) (AID 1259253); further: nearly all actives have a fitted effect of over 40% in size
Conditions: TC71 Ewing sarcoma viability, CellTiter-Glo, 48 h; series mostly up to 45.8 µM
Records with an inconclusive call do not appear. Active and inactive are the calls of the source. The call rests on the fitted dose curve; in most records, active means well fitted inhibition curve with a large enough effect; inconclusive means small, poorly fitted or top-dose-only effect; inactive means no such curve, though single readings can be large or run the other way.
Give your call using only these classes: active, inactive

Observe how each entry below is paired with its result.
# MOLECULE, ASSIGNED CLASS
records = [
    ("CC(C)=CC[C@@H](O)C1=CC(=O)c2c(O)ccc(O)c2C1=O", "active"),
    ("NC(=O)[C@@H](CCC(F)(F)F)N(Cc1ccc(-c2ncon2)cc1F)S(=O)(=O)c1ccc(Cl)cc1", "active"),
    ("COc1ccc(-c2coc3cc(O)cc(O)c3c2=O)cc1", "inactive"),
]

# outcome recorded in this test, key = COc1ccc(-c2coc3cc(O)ccc3c2=O)cc1
inactive

# outcome recorded in this test, key = CO[C@H]1C(=O)[C@]2(C)[C@@H](OC)C[C@H]3OC[C@@]3(OC(C)=O)[C@H]2[C@H](OC(=O)c2ccccc2)[C@]2(O)C[C@H](OC(=O)[C@H](O)[C@@H](NC(=O)OC(C)(C)C)c3ccccc3)C(C)=C1C2(C)C
inactive

# outcome recorded in this test, key = CN(C)c1cc(NC(=O)CNC(C)(C)C)c(O)c2c1C[C@@H]1C[C@H]3[C@H](N(C)C)C(=O)C(C(N)=O)=C(O)[C@@]3(O)C(=O)C1=C2O
inactive

# outcome recorded in this test, key = CCOC(=O)C1=C(N)Oc2ccc(Br)cc2C1C(C#N)C(=O)OCC (stereo not drawn)
active

# outcome recorded in this test, key = Cc1nc(N)sc1-c1ccnc(Nc2ccc(N3CCOCC3)cc2)n1
active

// data source = PubChem BioAssay (NCATS)
